- Measured on: CHIKV Mac (Chikungunya virus, UniProt Q8JUX6)
- Sequence (Q8JUX6 1334-1493 limits assumed): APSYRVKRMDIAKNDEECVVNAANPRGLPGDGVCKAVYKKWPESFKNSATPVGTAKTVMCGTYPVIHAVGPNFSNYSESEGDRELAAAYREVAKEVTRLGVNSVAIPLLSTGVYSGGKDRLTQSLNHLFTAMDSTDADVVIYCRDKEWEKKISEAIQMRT
- Assay remarks: biochemical
- Format: binding
- Run conditions: read-out: kdis
Recorded metric: koff (s⁻¹)
Answers are plain numbers, in s⁻¹.

Record excerpt, results attached:
Item: Nc1ncnc2c1ncn2[C@@H]1O[C@H](COP(=O)(O)OP(=O)(O)OC[C@H]2O[C@H](n3cc(COCCOCCOCCOCCNC(=O)CCCC[C@@H]4SC[C@@H]5NC(=O)N[C@@H]54)nn3)[C@H](O)[C@@H]2O)[C@@H](O)[C@H]1O [biotin-ADPr] | koff: 0.65

Lab note: measured koff of Nc1ncnc2c1ncn2[C@@H]1O[C@H](COP(=O)(O)OP(=O)(O)OC[C@H]2O[C@H](Oc3ccc(Cn4cc(COCCOCCOCCOCCNC(=O)CCCC[C@@H]5SC[C@@H]6NC(=O)N[C@@H]65)nn4)cc3)[C@H](O)[C@@H]2O)[C@@H](O)[C@H]1O [biotin-Ph-ADPr] was 0.12

Field koff (entry N#C[C@@]1(c2ccc3c(N)ncnn23)O[C@H](COP(=O)(O)OP(=O)(O)OC[C@H]2O[C@H](Oc3ccc(Cn4cc(COCCOCCOCCOCCNC(=O)CCCC[C@@H]5SC[C@@H]6NC(=O)N[C@@H]65)nn4)cc3)[C@H](O)[C@@H]2O)[C@@H](O)[C@H]1O [biotin-Ph-NDPr] ) reads 0.11

Here's the next entry for you.
For N#C[C@@]1(c2ccc3c(N)ncnn23)O[C@H](COP(=O)(O)OP(=O)(O)OC[C@H]2O[C@H](n3cc(COCCOCCOCCOCCNC(=O)CCCC[C@@H]4SC[C@@H]5NC(=O)N[C@@H]54)nn3)[C@H](O)[C@@H]2O)[C@@H](O)[C@H]1O [biotin-NDPr] the compound record lists koff as 0.06

* * *

- Measured on: SARS-CoV-2 Mac1 (Severe acute respiratory syndrome coronavirus 2, UniProt P0DTD1)
- Assay remarks: biochemical
- Type: binding
Recorded metric: pKd
Answers are plain numbers, as −log10 of the molar value.

Please state, for each entry, its recorded pKd.
1. N#C[C@@]1(c2ccc3c(N)ncnn23)O[C@H](COP(=O)(O)OP(=O)(O)OC[C@H]2O[C@H](Oc3ccc(Cn4cc(COCCOCCOCCOCCNC(=O)CCCC[C@@H]5SC[C@@H]6NC(=O)N[C@@H]65)nn4)cc3)[C@H](O)[C@@H]2O)[C@@H](O)[C@H]1O
2. N#C[C@@]1(c2ccc3c(N)ncnn23)O[C@H](COP(=O)(O)OP(=O)(O)OC[C@H]2O[C@H](n3cc(COCCOCCOCCOCCNC(=O)CCCC[C@@H]4SC[C@@H]5NC(=O)N[C@@H]54)nn3)[C@H](O)[C@@H]2O)[C@@H](O)[C@H]1O

[7.62, 6.55]

Here are 2 molecules. What values of pKd were reported for them?
1. Nc1ncnc2c1ncn2[C@@H]1O[C@H](COP(=O)(O)OP(=O)(O)OC[C@H]2O[C@H](n3cc(COCCOCCOCCOCCNC(=O)CCCC[C@@H]4SC[C@@H]5NC(=O)N[C@@H]54)nn3)[C@H](O)[C@@H]2O)[C@@H](O)[C@H]1O
2. Nc1ncnc2c1ncn2[C@@H]1O[C@H](COP(=O)(O)OP(=O)(O)OC[C@H]2O[C@H](Oc3ccc(Cn4cc(COCCOCCOCCOCCNC(=O)CCCC[C@@H]5SC[C@@H]6NC(=O)N[C@@H]65)nn4)cc3)[C@H](O)[C@@H]2O)[C@@H](O)[C@H]1O

1. 4.71
2. 6.38

* * *

- Measured on: MERS-CoV Mac1 (Middle East respiratory syndrome-related coronavirus, UniProt K9N7C7)
- Sequence (K9N7C7 1110-1276 limits assumed): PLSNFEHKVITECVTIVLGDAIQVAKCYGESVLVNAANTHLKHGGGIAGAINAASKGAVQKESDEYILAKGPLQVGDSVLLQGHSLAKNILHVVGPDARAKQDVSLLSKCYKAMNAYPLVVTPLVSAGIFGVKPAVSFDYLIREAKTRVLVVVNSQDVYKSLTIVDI
- Assay remarks: biochemical
- Format: binding
- Run conditions: read-out: kdis
For each entry below, report its koff value.
Numbers only, in s⁻¹.

// solved cases for koff follow
koff measured on `Nc1ncnc2c1ncn2[C@@H]1O[C@H](COP(=O)(O)OP(=O)(O)OC[C@H]2O[C@H](Oc3ccc(Cn4cc(COCCOCCOCCOCCNC(=O)CCCC[C@@H]5SC[C@@H]6NC(=O)N[C@@H]65)nn4)cc3)[C@H](O)[C@@H]2O)[C@@H](O)[C@H]1O` = 0.11

For this compound ( `Nc1ncnc2c1ncn2[C@@H]1O[C@H](COP(=O)(O)OP(=O)(O)OC[C@H]2O[C@H](n3cc(COCCOCCOCCOCCNC(=O)CCCC[C@@H]4SC[C@@H]5NC(=O)N[C@@H]54)nn3)[C@H](O)[C@@H]2O)[C@@H](O)[C@H]1O` ), measured koff is 0.7

Measured koff of `N#C[C@@]1(c2ccc3c(N)ncnn23)O[C@H](COP(=O)(O)OP(=O)(O)OC[C@H]2O[C@H](Oc3ccc(Cn4cc(COCCOCCOCCOCCNC(=O)CCCC[C@@H]5SC[C@@H]6NC(=O)N[C@@H]65)nn4)cc3)[C@H](O)[C@@H]2O)[C@@H](O)[C@H]1O` : 0.031

Others:
So, `N#C[C@@]1(c2ccc3c(N)ncnn23)O[C@H](COP(=O)(O)OP(=O)(O)OC[C@H]2O[C@H](n3cc(COCCOCCOCCOCCNC(=O)CCCC[C@@H]4SC[C@@H]5NC(=O)N[C@@H]54)nn3)[C@H](O)[C@@H]2O)[C@@H](O)[C@H]1O` ? Its koff was 0.27

* * *

- Measured on: VEEV Mac (Venezuelan equine encephalitis virus, UniProt P27282)
- Sequence (P27282 1330-1489 limits assumed): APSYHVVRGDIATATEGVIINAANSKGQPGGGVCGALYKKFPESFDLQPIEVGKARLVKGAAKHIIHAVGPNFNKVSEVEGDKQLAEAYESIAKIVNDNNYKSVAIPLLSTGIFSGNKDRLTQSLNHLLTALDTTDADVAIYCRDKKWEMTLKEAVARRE
For each entry below, report its IC50 value.
Answers are plain numbers, in nM.

Completed entries (count: 2):
The reported value for N#C[C@@]1(c2ccc3c(N)ncnn23)O[C@H](COP(=O)(O)OP(=O)(O)OC[C@H]2O[C@H](Oc3ccccc3)[C@H](O)[C@@H]2O)[C@@H](O)[C@H]1O [Ph-NDPr] in terms of IC50 is 220

Lab book: IC50 of Nc1ncnc2c1ncn2[C@@H]1O[C@H](COP(=O)(O)OP(=O)(O)OC[C@H]2O[C@H](Oc3ccccc3)[C@H](O)[C@@H]2O)[C@@H](O)[C@H]1O [Ph-ADPr] noted as 7300

---
Data point: N#CC1(c2ccc3c(N)ncnn23)OC(COP(=O)(O)OP(=O)(O)OCC2OC(O)C(O)C2O)C(O)C1O (stereo not drawn) [NDPr] ; IC50 = 510

* * *

- Measured on: MERS-CoV Mac1 (Middle East respiratory syndrome-related coronavirus, UniProt K9N7C7)
- Assay remarks: biochemical
- Type: binding
For each record, write down the corresponding kon.
Field: value (include unit after the number)

Entry `Nc1ncnc2c1ncn2[C@@H]1O[C@H](COP(=O)(O)OP(=O)(O)OC[C@H]2O[C@H](Oc3ccc(Cn4cc(COCCOCCOCCOCCNC(=O)CCCC[C@@H]5SC[C@@H]6NC(=O)N[C@@H]65)nn4)cc3)[C@H](O)[C@@H]2O)[C@@H](O)[C@H]1O` , kon reported as 1.1e+06 M⁻¹ s⁻¹

Query `N#C[C@@]1(c2ccc3c(N)ncnn23)O[C@H](COP(=O)(O)OP(=O)(O)OC[C@H]2O[C@H](n3cc(COCCOCCOCCOCCNC(=O)CCCC[C@@H]4SC[C@@H]5NC(=O)N[C@@H]54)nn3)[C@H](O)[C@@H]2O)[C@@H](O)[C@H]1O` yields kon of 1.3e+06 M⁻¹ s⁻¹

Per the record, `N#C[C@@]1(c2ccc3c(N)ncnn23)O[C@H](COP(=O)(O)OP(=O)(O)OC[C@H]2O[C@H](Oc3ccc(Cn4cc(COCCOCCOCCOCCNC(=O)CCCC[C@@H]5SC[C@@H]6NC(=O)N[C@@H]65)nn4)cc3)[C@H](O)[C@@H]2O)[C@@H](O)[C@H]1O` has kon of 1.8e+06 M⁻¹ s⁻¹

We now examine a further compound.
Documented kon of `Nc1ncnc2c1ncn2[C@@H]1O[C@H](COP(=O)(O)OP(=O)(O)OC[C@H]2O[C@H](n3cc(COCCOCCOCCOCCNC(=O)CCCC[C@@H]4SC[C@@H]5NC(=O)N[C@@H]54)nn3)[C@H](O)[C@@H]2O)[C@@H](O)[C@H]1O` : 320000 M⁻¹ s⁻¹

* * *

- Measured on: MacroD1 (Homo sapiens, UniProt Q9BQ69)
- Sequence (Q9BQ69 1-325): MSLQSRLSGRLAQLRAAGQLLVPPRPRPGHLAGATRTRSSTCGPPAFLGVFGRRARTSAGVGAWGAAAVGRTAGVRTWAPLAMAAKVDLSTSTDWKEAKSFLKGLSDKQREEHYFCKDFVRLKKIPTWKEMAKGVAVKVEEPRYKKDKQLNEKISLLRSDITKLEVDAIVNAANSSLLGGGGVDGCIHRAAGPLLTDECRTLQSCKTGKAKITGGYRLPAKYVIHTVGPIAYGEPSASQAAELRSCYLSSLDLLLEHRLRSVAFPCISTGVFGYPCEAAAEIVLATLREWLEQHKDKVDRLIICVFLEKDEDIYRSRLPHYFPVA
Recorded metric: IC50

So for N#CC1(c2ccc3c(N)ncnn23)OC(COP(=O)(O)OP(=O)(O)OCC2OC(O)C(O)C2O)C(O)C1O (stereo not shown) , the logged IC50 turned out to be > 10 µM
